Data provenance is patent US5075289A.

Reported MIC, Haemophilus influenzae DILL AMP R.

{"columns": ["substance_smiles", "units_label", "MIC"],
 "data": [
  ["CC[C@H]1OC(=O)[C@H](C)[C@@H](O[C@H]2C[C@@](C)(OC)[C@@H](O)[C@H](C)O2)[C@H](C)[C@@H](O[C@@H]2O[C@H](C)C[C@H](N(C)C)[C@H]2O)[C@](C)(O)C[C@@H](C)[C@@H](N2CCC(C)CC2)[C@H](C)[C@@H](O)[C@]1(C)O", "µg/mL", 1],
  ["CC[C@H]1OC(=O)[C@H](C)[C@@H](O[C@H]2C[C@@](C)(OC)[C@@H](O)[C@H](C)O2)[C@H](C)[C@@H](O[C@@H]2O[C@H](C)C[C@H](N(C)C)[C@H]2O)[C@](C)(O)C[C@@H](C)[C@@H](N2CCC(=O)CC2)[C@H](C)[C@@H](O)[C@]1(C)O", "µg/mL", 0.5],
  ["CC[C@H]1OC(=O)[C@H](C)[C@@H](O[C@H]2C[C@@](C)(OC)[C@@H](O)[C@H](C)O2)[C@H](C)[C@@H](O[C@@H]2O[C@H](C)C[C@H](N(C)C)[C@H]2O)[C@](C)(O)C[C@@H](C)[C@@H](N2CCOCC2)[C@H](C)[C@@H](O)[C@]1(C)O", "µg/mL", 2],
  ["CC[C@H]1OC(=O)[C@H](C)[C@@H](O[C@H]2C[C@@](C)(OC)[C@@H](O)[C@H](C)O2)[C@H](C)[C@@H](O[C@@H]2O[C@H](C)C[C@H](N(C)C)[C@H]2O)[C@](C)(O)C[C@@H](C)[C@@H](N2CCC(OC)(OC)CC2)[C@H](C)[C@@H](O)[C@]1(C)O", "µg/mL", 0.5],
  ["CC[C@H]1OC(=O)[C@H](C)[C@@H](O[C@H]2C[C@@](C)(OC)[C@@H](O)[C@H](C)O2)[C@H](C)[C@@H](O[C@@H]2O[C@H](C)C[C@H](N(C)C)[C@H]2O)[C@](C)(O)C[C@@H](C)[C@@H](N2CCCCC2)[C@H](C)[C@@H](O)[C@]1(C)O", "µg/mL", 1]
]}
